- Subject Of Test: Luciferin 4-monooxygenase (Photinus pyralis)
- Assay: firefly luciferase enzyme inhibitors, primary screen, biochemical, luminescence, purified enzyme, 2006 set (AID 1141);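 note: cell-free assay with purified firefly luciferase at 100 ng per well in PBS; test concentration not given here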
- Reported Conditions: SteadyGlo luminescence, 30 min, higher = more signal, called active from +8 up or from −8 down
Active and inactive are the calls of the source.
What z-score was measured for each of the following?

Briefly, z-score measured for `COc1ccc(CCNC(=O)[C@@H]2c3ccccc3C(=O)N(Cc3ccc(OC(F)(F)F)cc3)[C@H]2c2ccc(CO)cc2)cc1` : -0.243 (inactive)

The recorded z-score for entry `COCCOC(=O)N1C(=O)[C@@]2(c3cc(C#CC4=CCCCC4)ccc31)[C@H](C(=O)NC[C@H](O)c1ccccc1)[C@H]1C(=O)O[C@H](c3ccccc3)[C@H](c3ccccc3)N1[C@@H]2c1ccc(O)cc1` equals -1.31 (inactive)

GET /value?item= C=CC(COC(C)=O)NS(=O)(=O)c1ccc(Br)cc1 (centres undefined) &field=z-score returns -0.481 (inactive)

GET /value?item= N#Cc1ccc(NN2C(C(O)c3ccc([N+](=O)[O-])cc3)C=CC3C(=O)N(c4ccccc4)C(=O)C32)cc1 (centres undefined) &field=z-score returns 0.843 (inactive)

// `CC(C)CNC(=O)[C@@]1(c2ccc([N+](=O)[O-])cc2)CC(=O)N(CC23CC4CC(CC(C4)C2)C3)[C@@H]1c1ccc(CO)cc1` : z-score value = -1.61 (inactive)

// sample `[N-]=[N+]=NCc1ccccc1C[C@]1(C(=O)O)N=C(c2ccc(OCCCO)cc2)O[C@H]1c1ccccc1CN=[N+]=[N-]` , its z-score was -1.49 (inactive)

The reported z-score of the compound `CN(C)CCCNC(=O)[C@@]1(Cc2ccccc2I)c2ccccc2C(=O)N(Cc2ccccc2C(F)(F)F)[C@H]1c1ccc(CO)cc1` was 0.606 (inactive)

Recorded result, `C=CC[C@]1(C(=O)N2CCOCC2)N=C(c2ccc(OCCCO)cc2)O[C@H]1c1ccccc1` , z-score: 1.25 (inactive)

Summary for this compound, `CC(C)CNC(=O)[C@@]1(c2ccc([N+](=O)[O-])cc2)CC(=O)N(CC23CC4CC(CC(C4)C2)C3)[C@@H]1c1ccc(CO)cc1I` : z-score is -0.447 (inactive)

Memo: `O=C1O[C@@H](c2ccccc2)[C@@H](c2ccccc2)N2[C@@H](c3ccc(OCCO)cc3)[C@]3(C(=O)Nc4ccccc43)[C@@H](C(=O)Nc3nc4ccccc4s3)[C@H]12` , reported z-score: -9.09 (active)

Entry `O=C1O[C@H](c2ccccc2)[C@H](c2ccccc2)N2[C@H]1[C@@H](C(=O)Nc1nc3ccccc3s1)[C@]1(C(=O)Nc3ccccc31)[C@H]2c1ccc(O)cc1` ; z-score = -0.647 (inactive)

The value of z-score measured for the compound COc1ccc(C(O)C2C=CC3C(=O)N(C)C(=O)C3N2Nc2ccccc2)cc1OCc1ccccc1 (centres undefined) turned out to be -0.51 (inactive)

Form: compound = `CCOC(=O)C[C@H]1[C@H](OC(=O)c2ccc(-c3ccccc3)cc2)[C@@H](NC(=O)Cc2ccc(OC)cc2)c2cc(OCCCO)ccc2N1C(=O)c1ccc2ccccc2n1` ; z-score = -0.639 (inactive)

Record `CC(C)NC(=O)[C@@H]1c2ccccc2C(=O)N(Cc2ccccc2)[C@H]1c1ccc(CO)cc1` , field z-score: 0.413 (inactive)
